Quick reference for koff among some binders
- TARGET ENTITY: T1, human IL-18 binding protein (IL-18BP) (human, UniProt O95998 31-194)
- T1 construct: also called hu IL-18BP; hIL18BP
- T1 sequence (looked up): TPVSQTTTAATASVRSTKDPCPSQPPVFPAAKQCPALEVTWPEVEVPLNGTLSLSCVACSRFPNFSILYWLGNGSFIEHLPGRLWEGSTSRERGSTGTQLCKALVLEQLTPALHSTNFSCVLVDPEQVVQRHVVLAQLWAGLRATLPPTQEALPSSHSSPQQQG
- TEST: Octet BLI
Give the value in s⁻¹ but do not write s⁻¹ after it.

Consider the worked cases shown below.
IL-18 variant G3R, N91M, K53S (ligand, also called G3R/K53S/N91M) YFRKLESKLSVIRNLNDQVLFIDQGNRPLFEDMTDSDMRDNAPRTIFIISMYSDSQPRGMAVTISVKSEKISTLSSENKIISFKEMNPPDMIKDTKSDIIFFQRSVPGHDNKMQFESSSYEGYFLASEKERDLFKLILKKEDELGDRSIMFTVQNED: 0.000735
IL-18 variant G3R, N91W, K53A (ligand, also called G3R/K53A/N91W) YFRKLESKLSVIRNLNDQVLFIDQGNRPLFEDMTDSDMRDNAPRTIFIISMYADSQPRGMAVTISVKSEKISTLSSENKIISFKEMNPPDWIKDTKSDIIFFQRSVPGHDNKMQFESSSYEGYFLASEKERDLFKLILKKEDELGDRSIMFTVQNED: 0.000185

input: For IL-18 variant G3A, N91L, K53S (ligand) YFAKLESKLSVIRNLNDQVLFIDQGNRPLFEDMTDSDMRDNAPRTIFIISMYSDSQPRGMAVTISVKSEKISTLSSENKIISFKEMNPPDLIKDTKSDIIFFQRSVPGHDNKMQFESSSYEGYFLASEKERDLFKLILKKEDELGDRSIMFTVQNED , write its koff.
output: 0.00103
